Consider the following compounds; for each one, report its IC50.
# subject_of_test: hMrgpMRGPRX2 (Homo sapiens, UniProt Q96LB1)
# Construct: expressed in transfected cells
# Sequence (Q96LB1 1-330): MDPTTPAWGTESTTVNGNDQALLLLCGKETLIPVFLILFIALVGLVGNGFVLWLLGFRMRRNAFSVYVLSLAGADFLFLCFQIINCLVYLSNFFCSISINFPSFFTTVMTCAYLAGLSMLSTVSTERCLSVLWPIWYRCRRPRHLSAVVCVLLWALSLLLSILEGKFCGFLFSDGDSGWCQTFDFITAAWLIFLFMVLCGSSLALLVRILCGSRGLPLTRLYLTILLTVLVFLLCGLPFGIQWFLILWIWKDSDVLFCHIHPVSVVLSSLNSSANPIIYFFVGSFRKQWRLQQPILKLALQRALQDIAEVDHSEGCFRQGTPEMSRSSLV
# protocol_description: FLIPR intracellular calcium mobilization, antagonist activity in recombinant hMrgpMRGPRX2 expressing cells
# Type: cell-based
# test_parameters: read-out: Human MrgprX2 Antagonist pIC50 (converted)

Give one value of IC50 per listed compound.
1. CC1(C)C(C(=O)Nc2ccc(Oc3ccc(F)nc3)cn2)C1(C)C
2. CCN(C[C@@H](O)C(F)(F)F)C(=O)Nc1ccc(Oc2cc(F)ccc2C#N)cn1

1. 5.01 nM
2. 1950 nM

Give one value of IC50 per listed compound.
1. CC(C)C(=O)Nc1ccc(N2CCCC2)cn1
2. CC(C)C(=O)Nc1ccc(Oc2cccc(Cl)c2)cn1
3. CC(C)(CO)C(=O)Nc1ccc(Oc2ccc(F)c(F)c2)cn1
4. CC(C)C(=O)Nc1ccc(Br)cn1
5. O=C(Nc1ccc(Oc2ccc(F)c(F)c2)cn1)[C@H]1C[C@H]1C(F)(F)F
6. CC1(C)CCN(c2ccc(Oc3ccc(F)c(F)c3)cn2)C1=O
7. CN(CC(F)(F)F)C(=O)Nc1ccc(Oc2ccc(F)c(F)c2)cn1

1. 3980 nM
2. 25.1 nM
3. 3980 nM
4. 6310 nM
5. 20 nM
6. 257 nM
7. 316 nM

Give one value of IC50 per listed compound.
1. CCN(C[C@@H](O)C(F)(F)F)C(=O)Nc1cnc(Oc2ccc(C#N)cc2F)cn1
2. CC1(C)C(C(=O)Nc2ccc(Oc3ccnc(C#N)c3)cn2)C1(C)C
3. CCN(C[C@@H](O)C(F)(F)F)C(=O)Nc1ccc(Oc2ccc(F)cc2F)cn1 [Compound E137]

["347 nM", "355 nM", "2.09 nM"]

* * *

Consider the following compounds; for each one, report its IC50.
# subject_of_test: hMrgpMRGPRX2 (Homo sapiens, UniProt Q96LB1)
# Construct: expressed in transfected cells
# protocol_description: FLIPR intracellular calcium mobilization, antagonist activity in recombinant hMrgpMRGPRX2 expressing cells
# Type: cell-based
# test_parameters: read-out: Human MrgprX2 Antagonist pIC50 (converted)
Express the reported value numerically, then name its unit.

// lookup IC50 for CC(C)C(=O)Nc1ccc(Oc2cccc(C#N)c2)cn1 [Compound E018]
6.31 µM

What would you report for CCN(C[C@@H](O)C(F)(F)F)C(=O)Nc1ccc(-c2cc(F)cc(C#N)c2)cn1 [Compound E192] ?
1.2 µM

Give one value of IC50 per listed compound.
1. O=C(Nc1ccc(Oc2cc(F)cc(F)c2)cn1)N1CC[C@@H](CO)C1 [Compound E130]
2. CC(C)C(=O)Nc1ccc(-c2ccccc2)cn1 [Compound E164]
3. COc1ccccc1-c1ccc(NC(=O)C(C)C)nc1 [Compound E169]
4. CCN(C[C@@H](O)C(F)(F)F)C(=O)Nc1cc(Oc2ccc(F)c(F)c2)ncn1 [Compound E289]
5. CC1(C)C(C(=O)Nc2ccc(Oc3cc(F)cc(C#N)c3)cn2)C1(C)C [Compound E042]
6. O=C(Nc1ccc(Oc2ccc(F)c(F)c2)cn1)[C@@H]1CCCO1 [Compound E055]
7. C[C@H](O)CN(C)C(=O)Nc1ccc(-c2cc(F)cc(F)c2)cn1 [Compound E191]
8. CN(C[C@@H](O)C(F)(F)F)C(=O)Nc1cc(Oc2ccc(F)c(F)c2)ccn1 [Compound E152]

["7.08 µM", "0.251 µM", "2 µM", "0.724 µM", "0.00316 µM", "6.31 µM", "2.51 µM", "0.263 µM"]

Give one value of IC50 per listed compound.
1. CC1(C)C(C(=O)Nc2cc(C(=O)NCC(F)(F)F)ccn2)C1(C)C [Compound E269]
2. CC1(C)C(C(=O)Nc2cc3c(cn2)OCCO3)C1(C)C [Compound E216]
3. CC(C)C(=O)Nc1ccc(Oc2cccc(F)c2)cn1 [Compound E004]
4. CC1(C)C(C(=O)Nc2ccc(Oc3cc(F)cc(C(N)=O)c3)cn2)C1(C)C [Compound E075]
5. CC1(C)CC1C(=O)Nc1ccc(Oc2ccnc(F)c2)cn1 (centres unmarked) [Compound E072]
6. CC(C)C(=O)Nc1cc(Oc2ccccc2)ccn1 [Compound E145]

1: 3.16 µM; 2: 0.331 µM; 3: 0.0631 µM; 4: 0.501 µM; 5: 1.91 µM; 6: 0.794 µM

Give one value of IC50 per listed compound.
1. CCN(C[C@@H](O)C(F)(F)F)C(=O)Nc1cnc(Oc2ccc(F)cc2Cl)cn1 [Compound E260]
2. CC1(C(=O)Nc2ccc(Oc3ccc(F)c(F)c3)cn2)CCOCC1 [Compound E027]
3. CCN(C[C@@H](O)C(F)(F)F)C(=O)Nc1cnc(Oc2c(F)cccc2F)cn1 [Compound E244]
4. CC1(C)C(C(=O)Nc2ccc(N3CCCC3)cn2)C1(C)C [Compound E097]

["0.00407 µM", "3.16 µM", "0.0269 µM", "0.00251 µM"]

* * *

# subject_of_test: hMrgpMRGPRX2 (Homo sapiens)
# Construct: expressed in transfected cells
# Sequence (Q96LB1 1-330): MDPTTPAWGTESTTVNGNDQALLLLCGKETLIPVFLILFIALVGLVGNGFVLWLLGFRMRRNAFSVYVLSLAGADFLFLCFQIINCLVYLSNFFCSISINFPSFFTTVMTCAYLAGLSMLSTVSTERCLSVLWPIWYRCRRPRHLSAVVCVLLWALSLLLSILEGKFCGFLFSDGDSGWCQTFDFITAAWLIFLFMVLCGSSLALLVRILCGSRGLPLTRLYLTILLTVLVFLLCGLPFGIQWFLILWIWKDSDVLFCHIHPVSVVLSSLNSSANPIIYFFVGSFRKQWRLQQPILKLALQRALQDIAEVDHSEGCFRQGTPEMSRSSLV
# protocol_description: FLIPR intracellular calcium mobilization, antagonist activity in recombinant hMrgpMRGPRX2 expressing cells
# Format: cell-based
# test_parameters: read-out: Human MrgprX2 Antagonist pIC50 (converted)
Consider the following compounds; for each one, report its IC50.
Express the reported value numerically, then name its unit.

Examples with their reported IC50 follow.
// lookup IC50 for CC1(C)CC1C(=O)Nc1ccc(-c2cc(F)cc(C#N)c2)cn1 (stereo not shown)
0.0501 µM

What would you report for CN(C[C@@H](O)C(F)(F)F)C(=O)Nc1cnc(Oc2cccc(F)c2F)cn1 ?
0.0589 µM

What would you report for NS(=O)(=O)N1CCC[C@H]1C(=O)Nc1ccc(Oc2cc(F)cc(F)c2)cn1 ?
0.562 µM

What would you report for CN(C(=O)Nc1ccc(Oc2ccc(F)c(F)c2)cn1)C1CC1 ?
0.631 µM

What would you report for CCN(C[C@@H](O)C(F)(F)F)C(=O)Nc1ccc(Oc2cccc(F)c2)cn1 ?
0.0123 µM

What would you report for CC(C)C(=O)Nc1ccc(Oc2cc(F)cc(C#N)c2)cn1 ?
1.58 µM

Give one value of IC50 per listed compound.
1. CC1(C)C(C(=O)Nc2ccc(-n3cc(F)cn3)cn2)C1(C)C
2. CC1(C)CC1C(=O)Nc1cnc(Oc2cc(F)cc(F)c2)cn1 (stereo not shown)
3. O=C(Nc1ccc(Oc2ccc(F)c(F)c2)cn1)C1CC1(F)F (stereo not shown)
4. CCN(C[C@@H](O)C(F)(F)F)C(=O)Nc1cc(Oc2ccc(F)c(F)c2)ccn1
5. CC(C)(F)C(=O)Nc1ccc(Oc2ccc(F)c(F)c2)cn1
6. CCN(C[C@@H](O)C(F)(F)F)C(=O)Nc1cnc(Oc2cc(F)ccc2F)cn1

0.0437 µM
0.0251 µM
0.2 µM
0.00347 µM
0.398 µM
0.0017 µM

Give one value of IC50 per listed compound.
1. CC1(C)CN(C(=O)Nc2ccc(Oc3ccc(F)c(F)c3)cn2)C1
2. CC1(C)C(C(=O)Nc2ccc(-n3ccc(C#N)n3)cn2)C1(C)C
3. CC(C)C(=O)Nc1ccc(Oc2ccc(F)c(F)c2)cn1
4. CN(C[C@@](C)(O)C(F)(F)F)C(=O)Nc1cnc(Oc2ccc(F)cc2F)cn1
5. Cc1nc(-c2ccc(NC(=O)C3C(C)(C)C3(C)C)nc2)no1
6. CC(C)C(=O)Nc1ccc(Nc2ccccc2)cn1

1. 3.24 µM
2. 0.0282 µM
3. 0.0398 µM
4. 0.00389 µM
5. 0.00851 µM
6. 3.98 µM

Give one value of IC50 per listed compound.
1. CC(C)(C#N)C(=O)Nc1ccc(-c2cc(F)cc(F)c2)cn1
2. CC(C)N(C)C(=O)Nc1cnc(Oc2cc(F)cc(F)c2)cn1

["1.26 µM", "0.631 µM"]

Give one value of IC50 per listed compound.
1. Cn1cc(Oc2ccc(NC(=O)C3C(C)(C)C3(C)C)nc2)cn1
2. CNc1ccc(NC(=O)C2C(C)(C)C2(C)C)nc1

0.00363 µM
1.66 µM

From: patent US20230027929A1
